Reported pIC50 values are given for each entry in this list.
# Tested on: human A549 cells
# test-details: Inhibition test of PGE2 production using human A549 cells
# Type: cell-based
# condition-label: IL-1β stimulated A549 cells, 24 h, PGE2 by HTRF, read-out: A549 cell inhibition of PGE2 production IC50
pIC50: −log10 of the molar value. Where a name gives a salt, the structure may show the parent alone.

molecule | system-name | qualifier-operator | pIC50
O=C(CC1CC1)NCc1ccc(Cl)c(C(=O)Nc2cccc3c2cnn3-c2ccc(C(F)(F)F)cc2)c1 | human A549 cells | = | 8.12
O=C(Nc1cccc2c1cnn2-c1ccc(C(F)(F)F)cc1)c1cc(CNC(=O)C23CC4CC(CC(C4)C2)C3)ccc1Cl | human A549 cells | = | 7.92
CC(C)(C)CC(=O)NCc1ccc(Cl)c(C(=O)Nc2cccc3c2cnn3-c2ccc(F)cc2)c1 | human A549 cells | = | 7.84
Cc1ccc(-n2ncc3c(NC(=O)c4cc(CNC(=O)C(C)(C)C)ccc4Cl)cccc32)cn1 [Example 54, hydrochloride] | human A549 cells | = | 8.21
CC(C)(C)C(=O)NCc1ccc(Cl)c(C(=O)Nc2cccc3c2cnn3-c2ccc(C#N)nc2)c1 | human A549 cells | = | 7.94
CC(C)(C)C(=O)NCc1ccc(Cl)c(C(=O)Nc2cccc3c2cnn3-c2ccc(C(C)(C)F)nc2)c1 | human A549 cells | = | 8.22
CC(C)(C)C(=O)NCc1ccc(Cl)c(C(=O)Nc2cccc3c2cnn3CCc2ccccc2)c1 | human A549 cells | = | 8.57
O=C(Nc1cccc2c1cnn2-c1cccc(OC(F)(F)F)c1)c1cc(CNC(=O)C2(C(F)(F)F)CC2)ccc1Cl | human A549 cells | = | 8.29
O=C(Nc1cccc2c1cnn2-c1ccc(F)cc1)c1cc(CNS(=O)(=O)C2CC2)ccc1Cl | human A549 cells | = | 7.84
O=C(Nc1cccc2c1cnn2-c1nccs1)c1cc(CNC(=O)C2(C(F)(F)F)CC2)ccc1Cl | human A549 cells | = | 7.89
Cc1cc(-n2ncc3c(NC(=O)c4cc(CNC(=O)C5CCCC5)ccc4Cl)cccc32)cc(C)n1 | human A549 cells | = | 8.51
CC(C)(C)C(=O)NCc1ccc(Cl)c(C(=O)Nc2cccc3c2cnn3CC2CCCCO2)c1 (centres unmarked) | human A549 cells | = | 7.95
CN(C)CC(=O)NCc1ccc(Cl)c(C(=O)Nc2cccc3c2cnn3-c2ccc(C(F)(F)F)cc2)c1 [Example 24, hydrochloride] | human A549 cells | = | 7.33
COc1ccc(-n2ncc3c(NC(=O)c4cc(CNC(=O)CC(C)(C)C)ccc4Cl)cccc32)cc1C(F)(F)F | human A549 cells | = | 8.85
O=C(Nc1cccc2c1cnn2-c1ccc(OC(F)(F)F)cc1)c1cc(CNC(=O)C2(C(F)(F)F)CC2)ccc1Cl | human A549 cells | = | 9.22
CC(C)n1ncc2c(NC(=O)c3cc(CNC(=O)C4CCCC4)ccc3Cl)cccc21 | human A549 cells | = | 7.39
COc1ccc(-n2ncc3c(NC(=O)c4cc(CNC(=O)C(C)(C)C)ccc4Cl)cccc32)cn1 | human A549 cells | = | 7.86
COc1ccc(-n2ncc3c(NC(=O)c4cc(CNC(=O)C5(C(F)(F)F)CC5)ccc4Cl)cccc32)cc1C(F)(F)F | human A549 cells | = | 9.52
O=C(Nc1cccc2c1cnn2-c1cccc(C(F)(F)F)c1)c1cc(CNC(=O)C2(C(F)(F)F)CC2)ccc1Cl | human A549 cells | > | 9.00
O=C(Nc1cccc2c1cnn2-c1cccc(C(F)(F)F)c1)c1cc(CNS(=O)(=O)C2CC2)ccc1Cl | human A549 cells | > | 9.00
Cc1ncccc1-n1ncc2c(NC(=O)c3cc(CNC(=O)C(C)(C)C)ccc3Cl)cccc21 [Example 56, hydrochloride] | human A549 cells | = | 6.74
COc1ccccc1-n1ncc2c(NC(=O)c3cc(CNC(=O)C4CC4)ccc3Cl)cccc21 | human A549 cells | = | 6.30
Cc1cc(-n2ncc3c(NC(=O)c4cc(CNC(=O)C(C)(C)C)ccc4Cl)cccc32)ccn1 [Example 58, hydrochloride] | human A549 cells | = | 8.23

* * *

# system-name: UniProt:O14684
# Sequence (O14684 whole entry): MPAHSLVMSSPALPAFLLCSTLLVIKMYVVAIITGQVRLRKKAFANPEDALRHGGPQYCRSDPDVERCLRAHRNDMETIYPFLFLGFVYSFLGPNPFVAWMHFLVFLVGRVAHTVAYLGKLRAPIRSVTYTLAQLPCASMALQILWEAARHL
# test-details: mPGES-1 inhibitory activity test
# Format: biochemical
# condition-label: microsomes of CHO-K1 cells expressing human mPGES-1, PGH2 1 μM, PGE2 by HTRF; read-out: mPGES-1 inhibition (IC50 nM)
Counter-ions that a name gives are not always drawn.
Reported log10 of IC50 values are given for each entry in this list.
measured-parameter: log10 of IC50 (log10 of the value in nM)

compound | log10 of IC50
CC(C)(C)C(=O)NCc1ccc(Cl)c(C(=O)Nc2cccc3c2cnn3-c2ccc(OC(F)(F)F)cc2)c1 | 0.70
CC(C)(C)C(=O)NCc1ccc(Cl)c(C(=O)Nc2cccc3c2cnn3-c2ccc(C(F)(F)F)cc2)c1 | 1.17
O=C(Nc1cccc2c1cnn2-c1ccc(C(F)(F)F)nc1)c1cc(CNC(=O)C2CC2)ccc1Cl | 0.43
COc1cncc(-n2ncc3c(NC(=O)c4cc(CNC(=O)C(C)(C)C)ccc4Cl)cccc32)c1 [Example 61, hydrochloride] | 0.54
O=C(Nc1cccc2c1cnn2-c1ccc(C(F)(F)F)cc1)c1cc(CNC(=O)C2CCOC2)ccc1Cl (stereo not drawn) | 1.49

// data source = patent US20250059172A1
